Data provenance: patent US9693556B2

test system: Setaria faberi (SETFA); test: Post-emergence herbicidal glasshouse test on Setaria faberi; type: in vivo; settings: post-emergence; 1000 g/h; evaluated after 13 days
Kindly supply the reported POST Application SETFA herbicidal damage (five point scale) values for the records listed here.

>>> df
                                   compound    experimental_value
0  Cn1ncc(-c2ccc(S(=O)(=O)N3CCOCC3)cc2S(C)(=O)=O)c(O)c1=O [Compound 2.037]   4 (4=60-79% damage)
1  Cc1ccc(Cl)c(-c2cnn(C)c(=O)c2O)c1 [Compound 1.101]    1 (1=0-19% damage)
2  Cc1cc(F)ccc1-c1cnn(C)c(=O)c1O [Compound 1.093]    1 (1=0-19% damage)
3  C=Cc1nn(C)c(=O)c(O)c1-c1ccc(S(C)(=O)=O)c(C2=NOCC2)c1C [Compound 2.020]   4 (4=60-79% damage)
4  CCOc1nn(C)c(=O)c(O)c1-c1ccc(C(F)(F)F)cc1S(C)(=O)=O [Compound 2.050]  5 (5=80-100% damage)

I need POST Application SETFA herbicidal damage (five point scale) for every entry listed below, if you could help.
1. Cn1ncc(-n2ccc(C(F)(F)F)c(-c3ccc(C(F)(F)F)nc3)c2=O)c(O)c1=O [Compound 7.010]
2. Cn1ncc(-n2ccc(-c3ccc(C(F)(F)F)cc3)cc2=O)c(O)c1=O [Compound 1.023]
3. Cc1ccc(-c2cnn(C)c(=O)c2O)c(Cl)c1 [Compound 1.098]
4. Cn1ncc(-c2ccc(C(F)(F)F)nc2Oc2ccccc2)c(O)c1=O [Compound 4.008]
5. C=Cc1cccc(-c2c(C(F)(F)F)ccn(-c3cnn(C)c(=O)c3O)c2=O)c1 [Compound 7.011]
6. Cn1ncc(-n2ccc(C(F)(F)F)cc2=O)c(O)c1=O [Compound 1.078]

Ans.
["5 (5=80-100% damage)", "4 (4=60-79% damage)", "1 (1=0-19% damage)", "2 (2=20-39% damage)", "3 (3=40-59% damage)", "5 (5=80-100% damage)"]

I need POST Application SETFA herbicidal damage (five point scale) for every entry listed below, if you could help.
1. Cn1ncc(-c2cccc3ccccc23)c(O)c1=O [Compound 1.095]
2. Cn1ncc(-n2ccc(C(F)(F)F)c(-c3cncnc3)c2=O)c(O)c1=O [Compound 1.024]

Ans.
1: 1 (1=0-19% damage); 2: 3 (3=40-59% damage)

====

Kindly supply the reported PRE Application AMARE herbicidal damage (five point scale) values for the records listed here.
test system: Amaranthus retoflexus (AMARE); test: Pre-emergence herbicidal glasshouse test on Amaranthus retoflexus; type: in vivo; conditions: pre-emergence; 1000 g/h; evaluated after 13 days

Take a look at these entries with their results.
>>> df
                                        mol    experimental_value
0      Cn1ncc(-c2cc(C(F)(F)F)ccc2F)c(O)c1=O    1 (1=0-19% damage)
1  C#Cn1ncc(-c2ccc(C(F)(F)F)cc2S(C)(=O)=O)c(O)c1=O  5 (5=80-100% damage)
2        Cn1ncc(-c2ccc(Cl)c(F)c2Cl)c(O)c1=O    1 (1=0-19% damage)
3  COc1ccc(Cn2cccc(-c3cnn(C)c(=O)c3O)c2=O)cc1    1 (1=0-19% damage)

// next item, PRE Application AMARE herbicidal damage (five point scale) requested
Qu. Request - read-out PRE Application AMARE herbicidal damage (five point scale) | tested on Amaranthus retoflexus (AMARE) | molecule Cn1ncc(-n2ccc(-c3ccc(C(F)(F)F)cc3)cc2=O)c(O)c1=O
Ans. 5 (5=80-100% damage)
